# tested.target: HLA-DRB1*0401 (human)
# assay.explanation: competition binding
observable: pIC50
Friendly reminder that pIC50 comes from taking -log10 of the concentration in mol/L.

Q: Tell me the measured pIC50 of TQFVRFDSDAASQRM [peptide p7 (residues 31-45 of HLA-A2)] , please.
Ans: 6.45
